Assign growth to each entry below.
# System: ACHN renal
# protocol: NCI-60 one-dose screen, 48 h (100 = growth as untreated, 0 = no growth, -100 = all killed)
# experimental_parameters: 10 µM
This is part of a sample that, as a whole, favours compounds with a hit. Of some 83,000 tested, about 20% had one in any assay. Activity calls are given as the source filed them. How the source made its calls: active means growth percent below 10; inactive means the rest.

O=C(Nc1cccc(C(F)(F)F)c1)c1cncc(C#Cc2cnc3cccnn23)c1 = 55.2% (inactive)
CS(=O)(=O)Nc1ccc(-c2ccc3c(c2)ncn3-c2ccc(NC(=O)Nc3ccc(Br)cc3)cc2)cc1 = 4.12% (active)
C#Cc1ccc(S(=O)(=O)Nc2cccc(-c3csc(NC(C)=O)n3)c2)cc1 = 82.6% (inactive)
Cc1noc2c(Cc3ccccc3)nn(CC(=O)N/N=C/c3ccc(Br)cc3)c(=O)c12 = 6.21% (active)
O=C1NC(=NC23CC4CC(CC(C4)C2)C3)N/C1=C\c1ccc2ncsc2c1 = 3.03% (active)

// batch mode: one growth value per listed entry
1. CCN1CCN(c2ccc(NC(=O)Nc3ccc(-c4cc(C(=O)NC)c5ncccc5n4)cc3)cc2C(F)(F)F)CC1
2. Cc1nc2c(cnn2-c2ccccc2)c(=O)n1-c1ccc(NC(=O)c2ccc(F)cc2)cc1
3. CN1C(=O)/C(=C/c2ccc3ncsc3c2)NC1=NC12CC3CC(CC(O)(C3)C1)C2
4. COc1ccc(CN2[C@H](C(=O)NCc3ccc(C(=O)NO)cc3)Cc3c([nH]c4ccccc34)[C@H]2C2CC2)cc1

Reply |
["-100% (active)", "61% (inactive)", "0.736% (active)", "76.4% (inactive)"]

----------
# Tested on: SF-539 CNS
# protocol: NCI-60 one-dose screen, 48 h (100 = growth as untreated, 0 = no growth, -100 = all killed)
# experimental_parameters: 10 µM
# Method: Cells are grown in 96 well plates and exposed to the test compound for 48 hours. Compounds are tested at a single concentration, which is 10^-5 M for most compounds. The reported endpoint is percent growth (GI% or GIPRCNT), where numbers from 0 - 100% represent growth inhibition, and numbers from -100% - 0 represent cell death. For example, a value of 40 represents 60% growth inhibition. A value of 0 means no net growth occurred over the course of the experiment. […]
This is part of a sample that, as a whole, favours compounds with a hit. Of some 83,000 tested, about 20% had one in any assay.
Assign growth to each entry below.
Give bare numbers, in %.

Answered examples (5):
COc1ccc(CCN2C(=O)/C(=C/c3csc(C#N)n3)SC2=S)cc1 = -17.3
Cc1cc(=O)oc2cc(OCCCCOc3ccc(/C=C/C(=O)Nc4ccc(F)c(Cl)c4)cc3)ccc12 = 89.3
CCOC(=O)C(Cc1ccccc1)N1C(=O)/C(=C/N2N=C(c3ccc(OC)cc3)CC2c2ccc3ccccc3c2)SC1=S (stereo not given) = -27.2
Cc1ccc(C(=O)Nc2ccc(-n3c(C)nc4c(cnn4-c4ccccc4)c3=O)cc2)cc1 = 81.4
COc1ccsc1/C=N/NC(=O)c1[nH]c2ccc(Br)cc2c1-c1ccccc1 = -18.5

// batch mode: one growth value per listed entry
1. O=C1Nc2cc(Cl)ccc2/C1=C/c1cccc(OCc2ccccc2)c1
2. O=C(/C=C/Nc1ccc(F)cc1F)c1ccc2c(c1)Nc1ccccc1S2

Reply |
1. -56.8
2. 62.4

----------
# System: NCI-H522 lung
# protocol: NCI-60 one-dose screen, 48 h (100 = growth as untreated, 0 = no growth, -100 = all killed)
# experimental_parameters: 10 µM
Compounds without any hit were thinned out: in the full panel of roughly 83,000, 20% have a hit. Activity calls are given as the source filed them. The calls were made as follows: active = growth percent below 10; inactive = the rest.
reported_metric: growth

Answered examples (3):
O=C(CN1CCN(c2ncnc3c2cnn3-c2ccccc2)CC1)Nc1nncs1 = -79.3% (active)
Cc1cc(C)nc(SCC(=O)Nc2ccc(S(N)(=O)=O)cc2)n1 = 95.9% (inactive)
C=C(C)[C@@H]1CC[C@]2(COP(=O)(OCC)OCC)CC[C@]3(C)[C@H](CC[C@@H]4[C@@](C)(CCCN)[C@H](C(=C)C)CC[C@]43C)[C@@H]12 = 19.6% (inactive)

// batch mode: one growth value per listed entry
1. O=C(CNc1nc(-c2ccccc2)cs1)Nc1ccc([N+](=O)[O-])cc1Cl
2. O=C1Nc2cc(Cl)ccc2/C1=C/c1ccc(OCc2ccc(Br)cc2F)cc1
3. CN(CCF)c1ccc(/C=C/C(=O)c2ccc(N)cc2O)cc1
4. O=C(NO)c1ccc(Cn2ccc3c(Nc4ccccc4)ncnc32)cc1

Reply |
1: -19.1% (active); 2: -52.5% (active); 3: 67.5% (inactive); 4: -40.4% (active)

----------
# System: SK-OV-3 ovarian
# protocol: NCI-60 one-dose screen, 48 h (100 = growth as untreated, 0 = no growth, -100 = all killed)
# experimental_parameters: 10 µM
The panel holds about 83,000 compounds, 20% with a hit somewhere; the sample as a whole holds those more often.
Assign growth to each entry below.
Answers are plain numbers, in %.

Cc1cccc(-c2nc(Nc3ccccc3C(=O)O)c3ccccc3n2)c1 = 76.7
COc1csc(/C=N/NC(=O)c2[nH]c3ccc(Br)cc3c2-c2ccccc2)c1 = 26.3
CC(=O)c1ccc(Nc2nc(SCCC(C)C)nc(-c3ccc(F)cc3)c2C#N)cc1 = 98.7
CCOP(=O)(OCC)O[C@H]1CC[C@]2(C)[C@H]3CC[C@@H]4[C@@H]([C@](C)(O)CCC=C(C)C)CC[C@@]4(C)[C@]3(C)CC[C@H]2C1(C)C = 37
CC(C)CCSc1nc(NC2CC2)c(C#N)c(-c2ccc(C(C)C)cc2)n1 = 96.5

// batch mode: one growth value per listed entry
1. O=C1Nc2cc(Cl)ccc2/C1=C/c1cccc(OCc2ccccc2)c1
2. CCN1CCN(Cc2ccc(NC(=O)c3cccc(-n4cc(-c5ccc(NC(C)=O)nc5)nn4)c3)cc2C(F)(F)F)CC1
3. C=CCn1c(SCC(=O)Nc2ccc(C(=O)/C=C/c3ccccc3)cc2)nnc1-c1c[nH]c2ccccc12

Reply |
1. 32
2. 96.6
3. 86.8

Ask | # query: growth of entry CN1C(=O)N(C)C2SC(N/N=C/C=C/c3ccccc3)=NC21 (centres undefined)
Reply | 98.4

----------
# System: MALME-3M melanoma
# protocol: NCI-60 one-dose screen, 48 h
# experimental_parameters: 10 µM
The panel holds about 83,000 compounds, 20% with a hit somewhere; the sample as a whole holds those more often. Active and inactive are the calls of the source. Rule for the calls: active = growth percent below 10; inactive = the rest.
Pick one: Y = active, N = inactive

Ask | Any idea what this test logged for COc1cc2c(cc1OC)CN(CCCCOc1cc(O)c3c(=O)cc(-c4ccccc4)oc3c1)CC2 ?
Reply | Y

Ask | Any idea what this test logged for COc1cnc2c(c1)C(=O)c1c-2n(CCCNCCO)c(=O)c2cc(OC)c(OC)cc12 ?
Reply | N

----------
# Test system: SK-MEL-28 melanoma
# protocol: NCI-60 one-dose screen, 48 h (100 = growth as untreated, 0 = no growth, -100 = all killed)
# experimental_parameters: 10 µM
The panel holds about 83,000 compounds, 20% with a hit somewhere; the sample as a whole holds those more often.
Assign growth to each entry below.
Give bare numbers, in %.

Answered examples (8):
CN1CCN(Cc2ccc(C(=O)Nc3cccc(Nc4ccc5c(O)cccc5n4)c3)cc2C(F)(F)F)CC1 = -95
Brc1ccc(/C=N/Nc2ncnc3sc4c(c23)CCN(Cc2ccccc2)C4)cc1 = 41.9
C=C(c1ccc(OC)c(N)c1)c1cc(C)nc2ccccc12 = 62.4
O=C(Nc1nc2ccccc2s1)c1ccc(Br)cc1 = 90.7
O=C(CSc1nnc(-c2ccc3nc(-c4ccc(Cl)cc4)[nH]c3c2)o1)Nc1ccc(Br)cc1 = -94.4
N#Cc1ccc(-c2nn(-c3ccc(C(=O)O)cc3)cc2CNc2ccc(Cl)cc2)cc1 = 77.6
COc1cc(C2CC(c3ccc(C)cc3)=Nc3c(N)nc(N)nc3N2)ccc1Oc1nc(Nc2ccc(F)cc2)nc(N(C)C)n1 (centres undefined) = 88.3
CC1(C)CC[C@]2(C(=O)O)CC[C@]3(C)C(=CC[C@@H]4[C@@]5(C)C/C(=C/c6ccncc6)[C@H](O)C(C)(C)[C@@H]5CC[C@]43C)[C@@H]2C1 = 46.3

Continue with the compound presented below.
Ask | # query: growth of entry Cc1ccc(C(=O)CSc2nnc(-c3c[nH]c4ccccc34)n2-c2ccccc2)cc1
Reply | 49

----------
# System: OVCAR-3 ovarian
# protocol: NCI-60 one-dose screen, 48 h
# experimental_parameters: 10 µM
The panel holds about 83,000 compounds, 20% with a hit somewhere; the sample as a whole holds those more often. Calls of active or inactive are those of the source. The calls were made as follows: active = growth percent below 10; inactive = the rest.
Pick one: Y = active, N = inactive

Ask | Any idea what this test logged for CN1C(=O)N(C)C2SC(N/N=C/C=C/c3ccccc3)=NC21 (centres undefined) ?
Reply | N

Ask | Any idea what this test logged for COc1ccc2c3nc4cc(C)c(C)cc4nc3n(CCN(C)C)c2c1 ?
Reply | Y

Ask | Any idea what this test logged for Cc1cc(C)nc(NS(=O)(=O)c2ccc(N/C(N)=N/c3nccc(-c4ccccc4)n3)cc2)n1 ?
Reply | N

Ask | Any idea what this test logged for C/C(=N\N=C\c1ccc(N(C)C)cc1)c1ccc2c(c1)Nc1ccccc1S2 ?
Reply | N

Ask | Any idea what this test logged for C#Cc1ccc(S(=O)(=O)Nc2cccc(-c3csc(NC(C)=O)n3)c2)cc1 ?
Reply | N

Ask | Any idea what this test logged for O=C1Nc2ccc(Cl)cc2/C1=C/c1cccc(OCc2ccccn2)c1 ?
Reply | Y

Ask | Any idea what this test logged for CNC(=O)c1cccc(N2CCc3c2ccc(NC(=O)Nc2ccc(N4CCN(C)CC4)c(C(F)(F)F)c2)c3F)c1 ?
Reply | Y
